Attribute: TGI
# Tested on: UACC-257 melanoma
# EXPERIMENT: NCI tumour cell line growth inhibition, 48 h
REPORTED_ENDPOINT: TGI

| COMPOUND | SYSTEM | REPORTED_ENDPOINT | RESULT |
| --- | --- | --- | --- |
| CCOC(=O)C(NC(=O)c1ccc(N=NN(C)C)cc1)C(C)C (stereo not drawn) | UACC-257 melanoma | TGI | > 100 µM |
| CCCC[C@@H]1CCN2C[C@@H](O)[C@@H](O)[C@H]2[C@@H]1O | UACC-257 melanoma | TGI | > 100 µM |
| c1ccc(-c2ccc(N=NN3CCCC3)cc2)cc1 | UACC-257 melanoma | TGI | > 100 µM |
| CCN(CCO)CCNc1ccc(C)c2sc3cc(Cl)ccc3c(=O)c12 | UACC-257 melanoma | TGI | 3.55 µM |
| Cc1ccc(-n2cc(-c3ccc(Cl)cc3)c3c2N=CN2NC(c4ccco4)=NC32)cc1 (stereo not drawn) | UACC-257 melanoma | TGI | > 100 µM |
| CCN(CC)CCCNc1ccc([N+](=O)[O-])c2nc3ccc(OC)cc3c(NCCCN(CC)CC)c12 | UACC-257 melanoma | TGI | > 10 µM |
| COc1ccccc1C(=O)c1ccc2ccccc2c1 | UACC-257 melanoma | TGI | > 100 µM |
| COc1ccc(/C(C)=N/NC(=S)N(C)C)c(O)c1 | UACC-257 melanoma | TGI | 77.7 µM |
